# System: 293T renal cells
# PROTOCOL: CCK-8 cytotoxicity assay, 293T
# Format: cell-based, human
# CONDITION_SET: Homo sapiens, HEK-293T, 24 h, CCK-8, 24 h exposure
# IC50 values compiled below
OBSERVED_PROPERTY: IC50 (µg/mL)

# COMPOUND, TARGET_UNDER_TEST, EXPERIMENTAL_VALUE
data = [
    ("N#Cc1c(Cl)c(Cl)c(Cl)c(C#N)c1Cl [Chlorothalonil, chlorothalonil]", "293T renal cells", 32.5),
    ("Cc1cc(C)nc(Nc2ccccc2)n1 [Pyrimethanil, pyrimethanil]", "293T renal cells", 111),
    ("CC(C)(C)C(=O)C(Oc1ccc(Cl)cc1)n1cncn1 (centres unmarked) [Triadimefon, triadimefon]", "293T renal cells", 107),
    ("CCCC1COC(Cn2cncn2)(c2ccc(Cl)cc2Cl)O1 (centres unmarked) [Propiconazole, propiconazole]", "293T renal cells", 27.2),
    ("CC(C)(C)C(O)(CCc1ccc(Cl)cc1)Cn1cncn1 (centres unmarked) [Tebuconazole, tebuconazole]", "293T renal cells", 41.5),
]

###

# Test system: CCC-HEL-1 hepatocytes
# CONDITION_SET: CCC-HEL-1 cells, 24 h exposure at median lethal concentration, vs control

# COMPOUND, LDH level
rows = [
    ("Cc1cc(C)nc(Nc2ccccc2)n1 [Pyrimethanil, pyrimethanil]", "LDH elevation"),
    ("CCCCC(C#N)(Cn1cncn1)c1ccc(Cl)cc1 (stereo not shown) [Myclobutanil, myclobutanil]", "LDH elevation"),
    ("CC(C)(C)C(O)(CCc1ccc(Cl)cc1)Cn1cncn1 (stereo not shown) [Tebuconazole, tebuconazole]", "LDH elevation"),
]

###

IC50 values by entry
# Tested on: 293T renal cells
# PROTOCOL: CCK-8 cytotoxicity assay, 293T
# Format: cell-based, human
# CONDITION_SET: Homo sapiens, HEK-293T, 24 h, CCK-8, 24 h exposure
OBSERVED_PROPERTY: IC50 (µg/mL)

# COMPOUND, OBSERVED_PROPERTY, EXPERIMENTAL_VALUE
rows = [
    ("CCCCC(C#N)(Cn1cncn1)c1ccc(Cl)cc1 (stereo not drawn)", "IC50", 458),
    ("CC1COC(Cn2cncn2)(c2ccc(Oc3ccc(Cl)cc3)cc2Cl)O1 (stereo not drawn)", "IC50", 209),
    ("CCOP(=S)(OCC)Oc1nc(Cl)c(Cl)cc1Cl", "IC50", 444),
]

###

# System: four mammalian cell lines (CCC-HEL-1, 293T, IAR, NRK)
# PROTOCOL: CCK-8 cytotoxicity, statements across the four cell lines
# Assay type: cell-based, human and rat
# CONDITION_SET: CCK-8 / heatmap of OD values, cell lines as stated in the sentence

# MOLECULE, cytotoxicity (in words)
rows = [
    ("CC1COC(Cn2cncn2)(c2ccc(Oc3ccc(Cl)cc3)cc2Cl)O1 (centres unmarked)", "strong cytotoxic effects"),
    ("CCCCC(C#N)(Cn1cncn1)c1ccc(Cl)cc1 (centres unmarked)", "strong cytotoxic effects"),
    ("CC(C)(C)C(=O)C(Oc1ccc(Cl)cc1)n1cncn1 (centres unmarked)", "strong cytotoxic effects"),
]

###

# Test system: NRK renal cells
# PROTOCOL: CCK-8 cytotoxicity assay, NRK
# Assay type: cell-based
# CONDITION_SET: Rattus norvegicus; CCK-8, 24 h exposure
Strictly below 200 µg/mL in IC50: y. Otherwise: n.

# COMPOUND, DISCRETE_LABEL
data = [
    ("N#Cc1c(Cl)c(Cl)c(Cl)c(C#N)c1Cl [Chlorothalonil, chlorothalonil]", "y"),
    ("CC(C)(C)C(=O)C(Oc1ccc(Cl)cc1)n1cncn1 (centres unmarked) [Triadimefon, triadimefon]", "n"),
    ("CC(C)(C)C(O)(CCc1ccc(Cl)cc1)Cn1cncn1 (centres unmarked) [Tebuconazole, tebuconazole]", "y"),
    ("CCCCC(C#N)(Cn1cncn1)c1ccc(Cl)cc1 (centres unmarked) [Myclobutanil, myclobutanil]", "n"),
    ("Cc1cc(C)nc(Nc2ccccc2)n1 [Pyrimethanil, pyrimethanil]", "y"),
    ("CCOP(=S)(OCC)Oc1nc(Cl)c(Cl)cc1Cl [Chlorpyrifos, chlorpyrifos]", "n"),
    ("CC1COC(Cn2cncn2)(c2ccc(Oc3ccc(Cl)cc3)cc2Cl)O1 (centres unmarked) [Difenoconazole, difenoconazole]", "n"),
]
